Test system: MDA-N
Assay: NCI tumour cell line growth inhibition, 48 h
property measured: TGI

[[record]]
molecule = "NC1=C(c2nc(-c3ccccc3)cs2)C(c2ccco2)c2c(c3ccccc3oc2=O)O1 (stereo not given)"
tested_system = "MDA-N"
property_measured = "TGI"
result = "> 100 µM"

[[record]]
molecule = "CN(CC(=O)Nc1ccccc1C(=O)O)c1ccccc1"
tested_system = "MDA-N"
property_measured = "TGI"
result = "> 100 µM"

[[record]]
molecule = "CCN(C(=O)N[C@@H](CC(C)C)C(=O)NCC(=O)OC)c1ccccc1"
tested_system = "MDA-N"
property_measured = "TGI"
result = "> 100 µM"

[[record]]
molecule = "CC1=C(C(=O)NNC(=O)C[N+](C)(C)C)CC(C(=O)NNC(=O)C[N+](C)(C)C)=C(C)N1"
tested_system = "MDA-N"
property_measured = "TGI"
result = "> 100 µM"

[[record]]
molecule = "C=C1CC[C@@H]2[C@](C)(COC(=O)CCC(=O)OC)CCC[C@@]2(C)[C@@H]1CCC1=CC(=O)OC1"
tested_system = "MDA-N"
property_measured = "TGI"
result = "> 100 µM"

[[record]]
molecule = "O=C(CC1(O)C(=O)Nc2c(Cl)cc(Cl)cc21)c1cccc([N+](=O)[O-])c1 (stereo not given)"
tested_system = "MDA-N"
property_measured = "TGI"
result = "34.6 µM"

[[record]]
molecule = "CCCN1C(=O)CN(S(=O)(=O)c2ccc(Cl)cc2)C1=O"
tested_system = "MDA-N"
property_measured = "TGI"
result = "> 100 µM"

[[record]]
molecule = "CC(C)(C)n1c(=O)n2c(-c3ccccc3)c(-c3ccccc3)n2c1=O"
tested_system = "MDA-N"
property_measured = "TGI"
result = "> 100 µM"


Input: Give MDA-N TGI for `CC(=O)Oc1ccc(-c2nnc(-c3ccc(OC(C)=O)cc3)nn2)cc1`
Output: > 100 µM

Input: Query for MDA-N: what TGI does the record show for `N/C(=N\N=C\c1nc2ccccc2o1)c1cnccn1` ?
Output: > 100 µM

====

System: OVCAR-4 ovarian
Assay: NCI tumour cell line growth inhibition, 48 h; in the data active = GI50 below about 0.43 µM; inactive = the rest
Allowed answers: active, inactive

Some entries whose results are on file:
[[record]]
molecule = "COc1cc2c(cc1OCCN1CCN(CCN3C(=O)c4cccc5cccc(c45)C3=O)CC1)N=C[C@@H]1CCCN1C2=O"
assigned_category = "inactive"

[[record]]
molecule = "COc1cc(NC(=O)COc2ccccc2)c(C(N)=O)cc1OC"
assigned_category = "inactive"

[[record]]
molecule = "Cc1ccc(-c2nc([P+](c3ccccc3)(c3ccccc3)c3ccccc3)c(N3CCOCC3)o2)cc1"
assigned_category = "active"

[[record]]
molecule = "Cc1cccc(Oc2ccc(Nc3ncnc4ccc(NC(=O)CN(C)C)cc34)cc2Cl)c1"
assigned_category = "inactive"

[[record]]
molecule = "CN(C)CCCC1(c2ccc(F)cc2)OCc2cc(-c3csc4ccccc34)ccc21 (centres undefined)"
assigned_category = "inactive"

[[record]]
molecule = "Nc1cc(C(F)(F)F)c(-c2nc(N3CCOCC3)nc(N3CCOCC3)n2)cn1"
assigned_category = "inactive"

[[record]]
molecule = "O=C(O)c1cn(C2CC2)c2cc(N3CCN(C(=O)N(c4ccccc4)c4nc(-c5ccccc5)cs4)CC3)c(F)cc2c1=O"
assigned_category = "inactive"

[[record]]
molecule = "COc1cc(/C=C/c2cc(/C=C/c3ccc(O)c(OC)c3)n(C(=O)Nc3ccc(C)cc3)n2)ccc1O"
assigned_category = "inactive"


Next item in the queue.
Input: Check the results log: what was the call for `Oc1c(Br)cc(Cl)cc1C(c1cc(Cl)cc(Br)c1O)C(Cl)(Cl)Cl` ?
Output: inactive

====

Test system: U251 CNS
# maps each entry to its GI50

[[record]]
compound = "N#C[Se]CCN1C(=O)c2ccccc2C1=O"
tested_system = "U251 CNS"
result = "2.63 µM"

[[record]]
compound = "COc1cc(/C=C/c2cc(/C=C/c3ccc(O)c(OC)c3)n(C(=O)Nc3ccc(C)cc3)n2)ccc1O"
tested_system = "U251 CNS"
result = "0.422 µM"

[[record]]
compound = "CN1CCN(C(=O)/C=C/c2ccc([N+](=O)[O-])o2)CC1"
tested_system = "U251 CNS"
result = "17.1 µM"

[[record]]
compound = "O=C1NC(=NCc2cccs2)O/C1=C\\c1ccc2ncccc2c1"
tested_system = "U251 CNS"
result = "5.07 µM"

[[record]]
compound = "CC(C)c1ccc2c(c1)CCC1C2CCCC1(C)NCc1ccccc1 (configuration not stated)"
tested_system = "U251 CNS"
result = "4.69 µM"


Input: U251 CNS / GI50 / O=C1C[C@@H]2OCC=C3C[N+]4([O-])CC[C@]56c7ccccc7N1[C@H]5[C@H]2[C@H]3C[C@@H]64 (some centres not stated) : value?
Output: > 100 µM

Input: Kindly state the measured GI50 obtained for `CC(=O)O[C@H]([C@H](OC(C)=O)[C@H](C)OC(C)=O)[C@@H](/C=C/[C@H]1CC=CC(=O)O1)OC(C)=O` with U251 CNS.
Output: > 100 µM

Input: Form: Entry = `COc1cc2c3c(n(CCCN)c(=O)c2cc1OC)-c1ccc(N)cc1C3=O` | System = U251 CNS | GI50 = ____
Output: 0.575 µM

Input: Give GI50 (U251 CNS) of the following compound: `O=C1c2ccccc2-c2c1c1c(O)cccc1n2Cc1ccccc1`
Output: 15.2 µM

Input: Kindly state the measured GI50 obtained for `COc1ccccc1CNCCCN1C(=O)c2ccc3c4c(ccc(c24)C1=O)C(=O)N(CCCNCc1ccccc1OC)C3=O` with U251 CNS.
Output: 0.164 µM

Input: Reported GI50 for U251 CNS, given `COc1ccc(Cn2c(Br)c3c(c2-c2cc(OC)c(OC)c(OC)c2)CCc2sc(N)nc2-3)cc1` ?
Output: 1.3 µM

Input: I'm curious: which GI50 was measured for `OC[C@H]1C[C@](O)(c2ccc(F)cc2)[C@@H](c2ccc(F)cc2)O1` tested on U251 CNS?
Output: > 100 µM

Input: Form entry - test system: U251 CNS; read-out: GI50; compound: `O=C(/C=C(\[O-])c1ccccc1)CCCCCCC(=O)/C=C(\[O-])c1ccccc1.O=C(/C=C(\[O-])c1ccccc1)CCCCCCC(=O)/C=C(\[O-])c1ccccc1.O=C(/C=C(\[O-])c1ccccc1)CCCCCCC(=O)/C=C(\[O-])c1ccccc1.[Y+3].[Y+3]`
Output: 25.7 µM

Input: Param readout = GI50; param system = U251 CNS; param query = `Cc1ccc(-c2nc([P+](c3ccccc3)(c3ccccc3)c3ccccc3)c(N3CCOCC3)o2)cc1` ; response: value
Output: 0.313 µM

Input: Hi! What's the reported GI50 for `C=CCN(CC=C)Cc1c[nH]c2ccccc12` on U251 CNS?
Output: 13.2 µM

Input: Param readout = GI50; param system = U251 CNS; param query = `O=C1NC(=O)N(S(=O)(=O)c2cc(C(=O)Nc3ccc(Cl)cc3)c(Cl)cc2S)S(=O)(=O)N1` ; response: value
Output: 15.1 µM

Input: Give the reported GI50 for `O=C(O)c1cn(C2CC2)c2cc(N3CCN(C(=O)N(c4ccccc4)c4nc(-c5ccccc5)cs4)CC3)c(F)cc2c1=O` (system: U251 CNS).
Output: 0.381 µM

====

Test system: SK-OV-3 ovarian
Assay: NCI tumour cell line growth inhibition, 48 h
property measured: TGI

Input: // fetch SK-OV-3 ovarian TGI for CC1C(OS(=O)(=O)c2ccc3[nH]c(=S)sc3c2)CC2C3(C)CCC2(C(C)C(=O)O)C(O)C13 (centres undefined)
Output: > 100 µM

Input: TGI of `O=[N+]([O-])c1ccc(N/N=C\c2cc(Br)ccc2O)nc1` on SK-OV-3 ovarian?
Output: 12 µM

Input: API: value(readout=TGI, system=SK-OV-3 ovarian) for record `O=c1c2sc3ccccc3sc=2c(=O)c2c(Cl)c(Cl)c(Cl)c(Cl)c12`
Output: > 100 µM

Input: Give SK-OV-3 ovarian TGI for COC(=O)C1=C(O)C(C(=O)OC)[C@@]2(O)[C@@H](C(=O)OC)[C@H](C)C[C@@H]1[C@@H]2C(=O)OC (some centres undefined)
Output: 72.9 µM

Input: State its TGI on SK-OV-3 ovarian: `CN(C)c1ccc(/C=c2/sc3nc(=O)c(-c4ccccc4NC(=O)C(F)(F)F)nn3c2=O)cc1`
Output: > 100 µM

Input: Form: Entry = `O=[N+]([O-])c1ccc(/C=C(/c2ccc([N+](=O)[O-])o2)S(=O)(=O)c2ccccc2)cc1` | System = SK-OV-3 ovarian | TGI = ____
Output: > 100 µM

Input: Which measured TGI belongs to `C=CCN1C(=O)NC(=O)/C(=C/c2c3ccccc3cc3ccccc23)C1=O` , tested on SK-OV-3 ovarian?
Output: 66 µM

Input: Provide the documented TGI with SK-OV-3 ovarian as the system for `O=c1c2cc(Br)ccc2nc(CNc2ccccc2)n1-c1ccccc1`
Output: > 96.4 µM

Input: API: value(readout= TGI, system= SK-OV-3 ovarian, query= O=C1c2ccccc2C2(O)N(c3ccccc3)C(=S)N(c3ccccc3)C12O (centres undefined) )
Output: > 100 µM
